- Test system: SW 900
- PROCEDURE_TEXT: relative viability (nuclei count vs DMSO), 5 days (fraction); higher = more cells survive
- EXPERIMENTAL_SETUP: first compound 0.5 µM
READOUT: relative viability
# answer = number (no unit)

Below: 4 molecules and their reported relative viability.
MOLECULE	READOUT	MEAS_VALUE
Nc1ccn([C@@H]2O[C@H](CO)[C@@H](O)[C@@H]2O)c(=O)n1 [Cytarabine] + COc1cccc2cc(-c3nc([C@H]4CC[C@H](C(=O)O)CC4)n4ncnc(N)c34)[nH]c12 [OSI-027] (partner 0.5 µM)	relative viability	0.136
Nc1ccn([C@@H]2O[C@H](CO)[C@@H](O)[C@@H]2O)c(=O)n1 [Cytarabine] + O=C(c1cc(Cc2n[nH]c(=O)c3ccccc23)ccc1F)N1CCN(C(=O)C2CC2)CC1 [Olaparib] (partner 8 µM)	relative viability	0.296
COc1cc2nccc(Oc3ccc(NC(=O)Nc4cc(C)on4)c(Cl)c3)c2cc1OC [Tivozanib] + NC(=O)Nc1cc(-c2cccc(F)c2)sc1C(=O)N[C@H]1CCCNC1 [AZD7762] (partner 0.2 µM)	relative viability	0.547
Nc1ccn([C@@H]2O[C@H](CO)[C@@H](O)[C@@H]2O)c(=O)n1 [Cytarabine] + CC(=O)c1c(C)c2cnc(Nc3ccc(N4CCNCC4)cn3)nc2n(C2CCCC2)c1=O [Palbociclib] (partner 0.5 µM)	relative viability	0.292

Request: Any idea what relative viability was measured for Nc1ccn([C@@H]2O[C@H](CO)[C@@H](O)[C@@H]2O)c(=O)n1 [Cytarabine] + N=C(N)NC(=N)NCCc1ccccc1 [Phenformin] (partner 250 µM) ?
Response: 0.155

Request: Now try Nc1ccn([C@@H]2O[C@H](CO)[C@@H](O)[C@@H]2O)c(=O)n1 [Cytarabine] + Nc1nc2[nH]cc(CCc3ccc(C(=O)N[C@@H](CCC(=O)O)C(=O)O)cc3)c2c(=O)[nH]1 [Pemetrexed] (partner 0.2 µM) .
Response: 0.143

====

- System: NCI-H650
- PROCEDURE_TEXT: relative viability (nuclei count vs DMSO), 5 days (fraction); higher = more cells survive
- EXPERIMENTAL_SETUP: first compound 0.253 µM
Entries annotated with measured relative viability
Give only the figure.

Request: Recorded relative viability for O=c1[nH]c2ccccc2n1C1CCN(CCCC(c2ccc(F)cc2)c2ccc(F)cc2)CC1 [Pimozide] + COc1cccc2cc(-c3nc([C@H]4CC[C@H](C(=O)O)CC4)n4ncnc(N)c34)[nH]c12 [OSI-027] (partner 0.5 µM) , please?
Response: 0.555

Request: O=c1[nH]c2ccccc2n1C1CCN(CCCC(c2ccc(F)cc2)c2ccc(F)cc2)CC1 [Pimozide] + CC(=O)c1c(C)c2cnc(Nc3ccc(N4CCNCC4)cn3)nc2n(C2CCCC2)c1=O [Palbociclib] (partner 0.5 µM) , same question.
Response: 0.313

====

The entries below come with measured relative viability values attached.
- System: HCC-366
- PROCEDURE_TEXT: relative viability (nuclei count vs DMSO), 5 days (fraction); higher = more cells survive
- EXPERIMENTAL_SETUP: first compound 2.53 µM
// no unit string in output, number only

See these solved cases before continuing.
COMPOUND	MEAS_VALUE
O=c1[nH]c2ccccc2n1C1CCN(CCCC(c2ccc(F)cc2)c2ccc(F)cc2)CC1 [Pimozide] + CC(C)C[C@H](NC(=O)[C@H](Cc1ccccc1)NC(=O)c1cnccn1)B(O)O [Bortezomib] (partner 0.002 µM)	1.03
O=c1[nH]c2ccccc2n1C1CCN(CCCC(c2ccc(F)cc2)c2ccc(F)cc2)CC1 [Pimozide] + COc1cc2c(Oc3ccc(NC(=O)C4(C(=O)Nc5ccc(F)cc5)CC4)cc3F)ccnc2cc1OCCCN1CCOCC1 [Foretinib] (partner 0.25 µM)	0.925

--- query ---
Request: Reported relative viability, compound Cc1cnc(-c2cnc(NCCNc3ccc(C#N)cn3)nc2-c2ccc(Cl)cc2Cl)[nH]1 + Cc1cc(Nc2cc(N3CCN(C)CC3)nc(Sc3ccc(NC(=O)C4CC4)cc3)n2)n[nH]1 [Tozasertib] (partner 0.1 µM) : ____
Response: 0.0493

====

- Test system: ABC-1
- PROCEDURE_TEXT: relative viability (nuclei count vs DMSO), 5 days (fraction); higher = more cells survive
- EXPERIMENTAL_SETUP: first compound 0.1581 µM
# note: exactly 0.4 is not below, so it is Not met; use Met for relative viability strictly under it

Solved entries (count: 8):
MOLECULE	DISCRETE_LABEL
Nc1ccn([C@@H]2O[C@H](CO)[C@@H](O)[C@@H]2O)c(=O)n1 [Cytarabine] + COc1cccc2cc(-c3nc([C@H]4CC[C@H](C(=O)O)CC4)n4ncnc(N)c34)[nH]c12 [OSI-027] (partner 0.5 µM)	Met
Nc1ccn([C@@H]2O[C@H](CO)[C@@H](O)[C@@H]2O)c(=O)n1 [Cytarabine] + CC(C)C[C@H](NC(=O)[C@H](Cc1ccccc1)NC(=O)c1cnccn1)B(O)O [Bortezomib] (partner 0.002 µM)	Met
COc1cc2nccc(Oc3ccc(NC(=O)Nc4cc(C)on4)c(Cl)c3)c2cc1OC [Tivozanib] + Cc1nc(NC(=O)N2CCC[C@H]2C(N)=O)sc1-c1ccnc(C(C)(C)C(F)(F)F)c1 [Alpelisib] (partner 2 µM)	Not met
COc1cc2nccc(Oc3ccc(NC(=O)Nc4cc(C)on4)c(Cl)c3)c2cc1OC [Tivozanib] + C[C@]1(O)C[C@@H](c2nc(-c3ccc4ccc(-c5ccccc5)nc4c3)c3c(N)nccn32)C1 [Linsitinib] (partner 1 µM)	Not met
COc1cc2nccc(Oc3ccc(NC(=O)Nc4cc(C)on4)c(Cl)c3)c2cc1OC [Tivozanib] + O=C(CCCCCCC(=O)Nc1ccccc1)NO [Vorinostat] (partner 1 µM)	Not met
COc1cc2nccc(Oc3ccc(NC(=O)Nc4cc(C)on4)c(Cl)c3)c2cc1OC [Tivozanib] + N=C(N)NC(=N)NCCc1ccccc1 [Phenformin] (partner 250 µM)	Met
COc1cc2nccc(Oc3ccc(NC(=O)Nc4cc(C)on4)c(Cl)c3)c2cc1OC [Tivozanib] + CC(=O)c1c(C)c2cnc(Nc3ccc(N4CCNCC4)cn3)nc2n(C2CCCC2)c1=O [Palbociclib] (partner 0.5 µM)	Not met
COc1cc2nccc(Oc3ccc(NC(=O)Nc4cc(C)on4)c(Cl)c3)c2cc1OC [Tivozanib] + COc1cccc2cc(-c3nc([C@H]4CC[C@H](C(=O)O)CC4)n4ncnc(N)c34)[nH]c12 [OSI-027] (partner 0.5 µM)	Met

Request: A record lists COc1cc2nccc(Oc3ccc(NC(=O)Nc4cc(C)on4)c(Cl)c3)c2cc1OC [Tivozanib] + COc1cc2c(Oc3ccc(NC(=O)C4(C(=O)Nc5ccc(F)cc5)CC4)cc3F)ccnc2cc1OCCCN1CCOCC1 [Foretinib] (partner 0.25 µM) . Is its relative viability below 0.4?
Response: Not met

====

- Tested on: LOU-NH91
- PROCEDURE_TEXT: relative viability (nuclei count vs DMSO), 5 days (fraction); higher = more cells survive
- EXPERIMENTAL_SETUP: first compound 0.0002 µM
Entries and their relative viability
The reply should be a number, written without any unit.

COMPOUND	relative viability
CC(=O)O[C@@]12CO[C@@H]1C[C@H](O)[C@@]1(C)C(=O)[C@H](O)C3=C(C)[C@@H](OC(=O)[C@H](O)[C@@H](NC(=O)OC(C)(C)C)c4ccccc4)C[C@@](O)([C@@H](OC(=O)c4ccccc4)[C@H]21)C3(C)C [Docetaxel] + O=C(c1cc(Cc2n[nH]c(=O)c3ccccc23)ccc1F)N1CCN(C(=O)C2CC2)CC1 [Olaparib] (partner 8 µM)	0.915
CC(=O)O[C@@]12CO[C@@H]1C[C@H](O)[C@@]1(C)C(=O)[C@H](O)C3=C(C)[C@@H](OC(=O)[C@H](O)[C@@H](NC(=O)OC(C)(C)C)c4ccccc4)C[C@@](O)([C@@H](OC(=O)c4ccccc4)[C@H]21)C3(C)C [Docetaxel] + Cc1nc(Nc2ncc(C(=O)Nc3c(C)cccc3Cl)s2)cc(N2CCN(CCO)CC2)n1 [Dasatinib] (partner 0.075 µM)	0.553

Request: Observed relative viability on LOU-NH91 for CC(=O)O[C@@]12CO[C@@H]1C[C@H](O)[C@@]1(C)C(=O)[C@H](O)C3=C(C)[C@@H](OC(=O)[C@H](O)[C@@H](NC(=O)OC(C)(C)C)c4ccccc4)C[C@@](O)([C@@H](OC(=O)c4ccccc4)[C@H]21)C3(C)C [Docetaxel] + C[C@]1(O)C[C@@H](c2nc(-c3ccc4ccc(-c5ccccc5)nc4c3)c3c(N)nccn32)C1 [Linsitinib] (partner 1 µM) , please.
Response: 0.967

Request: Check CC(=O)O[C@@]12CO[C@@H]1C[C@H](O)[C@@]1(C)C(=O)[C@H](O)C3=C(C)[C@@H](OC(=O)[C@H](O)[C@@H](NC(=O)OC(C)(C)C)c4ccccc4)C[C@@](O)([C@@H](OC(=O)c4ccccc4)[C@H]21)C3(C)C [Docetaxel] + N=C(N)NC(=N)NCCc1ccccc1 [Phenformin] (partner 250 µM) too.
Response: 0.661

The measurements presented in this section are drawn from the supplement of paper PMC10307832.
